yeast fitness listing for selected variants.
B1: tRNA (parent)
chain: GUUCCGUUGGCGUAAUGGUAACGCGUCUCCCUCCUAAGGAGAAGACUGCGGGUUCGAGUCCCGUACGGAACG

variants of: B1; assay: yeast fitness relative to wild type (ratio to wild type); higher = fitter; tRNA-Arg(CCU), competitive growth, 37 C, YPD
Fewer inactive variants are shown than the library holds.
Field format: numeric only.

U8C A45U C49U : 0.714

## Task Give the reported yeast fitness for this variant. C11A C24U U32A U35C
## Result 0.566

## Task Supply measured yeast fitness of C5G G41C A45U in your reply.
## Result 0.583
